Reference source for all entries: patent US20190338002A1

# Target under test: T1, rat alpha CGRP (SEQ ID NO: 82) (rat)
# T1 construct: also called rat αCGRP; rat α-CGRP
# T1 peptide: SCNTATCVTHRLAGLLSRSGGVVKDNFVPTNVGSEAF
# Experiment: SPR, 37 C, mutein captured, CGRP analyte
# maps each entry to its kon
# output: bare number, implied unit M⁻¹ s⁻¹

Check out these entries, answers already filled in.
{"Binder": "lipocalin mutein SEQ ID NO: 23 (designed binder, biotinylated by NHS chemistry for capture in SPR) QDSTSDLIPAPPLSKVPLQQNFQDNQFHGKWYVVGWAGNTLLREDKDPIKMQAKIYELKEDRSYNVTWVYFADKKCNYHIETFVPGSQPGEFTLGLIKSYPGETPILVRVVSTNYNQHAMVFFKGVNQNREIFEIILYGRTKELTNELKENFIRFSKSLGLPENHIVFPVPIDQCIDGSAWSHPQFEK", "Measurement unit": "M⁻¹ s⁻¹", "Experimental result": "1.39e+06"}
{"Binder": "lipocalin mutein SEQ ID NO: 9 (designed binder, biotinylated by NHS chemistry for capture in SPR) QDSTSDLIPAPPLSKVPLQQNFQDNQFHGKWYVVGWAGNTLLREDKDPIKMQATIYELKEDKSYDVTWVYLSEKKCNYHIETSVPGSQPGEFTLGTIKSYPGETSILVRVVSTNYNQHAMVFFKGMSQNREIFEITLYGRTKELASELKENFIRFSKSLGLPENHIVFPVPIDQCIDGSAWSHPQFEK", "Measurement unit": "M⁻¹ s⁻¹", "Experimental result": "1.22e+06"}

Next binder, please.
Determine from records and report kon for lipocalin mutein SEQ ID NO: 14 (designed binder, biotinylated by NHS chemistry for capture in SPR) QDSTSDLIPAPPLSKVPLQQNFQDNQFHGKWYVVGRAGNDALREDKDPEKMEATIYELKEDKSYNVTDVGFVQKKCMYVIHTFVPGSQPGEFTLGNIKSYPGVTSALVRVVSTNYNQHAMVFFKLVKQNRELFEITLYGRTKELTSELKENFIRFSKSLGLPENHIVFPVPIDQCIDGSAWSHPQFEK
1.19e+06
